# System: HeLa
# Protocol details: Antiproliferative activity against human HeLa cells assessed as reduction in cell viability measured after 72 hrs by MTT assay
Consider the following molecules; for each one, report its IC50.
Please state the figure in µM; there is no need to write the unit.

Would you kindly share the measured IC50 for Cc1cc(Nc2ncc(Cl)c(Nc3ccccc3S(=O)(=O)C(C)C)n2)c(OC(C)C)cc1C1CCN(CCC(=O)NCCOCCNCC(=O)Nc2cccc3c2C(=O)N(C2CCC(=O)NC2=O)C3=O)CC1 (centres undefined) ? 5.78

// query IC50 value for entry Cc1cc(Nc2ncc(Cl)c(Nc3ccccc3S(=O)(=O)C(C)C)n2)c(OC(C)C)cc1C1CCNCC1 0.94

Value lookup for IC50; key = Cc1cc(Nc2ncc(Cl)c(Nc3ccccc3S(=O)(=O)C(C)C)n2)c(OC(C)C)cc1C1CCN(CCC(=O)NCCCCCCCCNCC(=O)Nc2cccc3c2C(=O)N(C2CCC(=O)NC2=O)C3=O)CC1 (centres undefined) 7.67

Can you share its IC50? I mean this molecule: Cc1cc(Nc2ncc(Cl)c(Nc3ccccc3S(=O)(=O)C(C)C)n2)c(OC(C)C)cc1C1CCN(CCC(=O)NCCOCCOCCNCC(=O)Nc2cccc3c2C(=O)N(C2CCC(=O)NC2=O)C3=O)CC1 (centres undefined) 5.86

Recorded IC50 for Cc1cc(Nc2ncc(Cl)c(Nc3ccccc3S(=O)(=O)C(C)C)n2)c(OC(C)C)cc1C1CCN(CCC(=O)NCCOCCOCCNc2cccc3c2C(=O)N(C2CCC(=O)NC2=O)C3=O)CC1 (centres undefined) , please? 2.23

So what's the measured IC50 for this one? Cc1cc(Nc2ncc(Cl)c(Nc3ccccc3S(=O)(=O)C(C)C)n2)c(OC(C)C)cc1C1CCN(CCC(=O)NCCOCCNCCC(=O)Nc2cccc3c2C(=O)N(C2CCC(=O)NC2=O)C3=O)CC1 (centres undefined) 7.98

Reported IC50, molecule Cc1cc(Nc2ncc(Cl)c(Nc3ccccc3S(=O)(=O)C(C)C)n2)c(OC(C)C)cc1C1CCN(CCC(=O)NCCCCCCNCC(=O)Nc2cccc3c2C(=O)N(C2CCC(=O)NC2=O)C3=O)CC1 (centres undefined) : ____ 4.36

Please report the recorded IC50 for Cc1cc(Nc2ncc(Cl)c(Nc3ccccc3S(=O)(=O)C(C)C)n2)c(OC(C)C)cc1C1CCN(CCC(=O)NCCCCNCC(=O)Nc2cccc3c2C(=O)N(C2CCC(=O)NC2=O)C3=O)CC1 (centres undefined) . 8.15

Endpoint output: IC50 of Cc1cc(Nc2ncc(Cl)c(Nc3ccccc3S(=O)(=O)C(C)C)n2)c(OC(C)C)cc1C1CCN(CCC(=O)NCCCCNC(=O)COc2cccc3c2C(=O)N(C2CCC(=O)NC2=O)C3=O)CC1 (centres undefined) . Value? 6.99

FYI, the data here is from ChEMBL document CHEMBL4732145.
